Tested on: 786-O
Assay: Euclidean distance of Cell Painting phenotypic profile (signed KS, 77 features) to DMSO centroid (dimensionless distance); 5 or 10 uM (library dependent); higher = stronger phenotypic change vs DMSO (phenoactivity)
Conditions: 48 h
Where a name gives a salt, the structure may show the parent alone.
Kindly state Euclidean distance for each of the entries shown.

[in] Given the compound CC(C)COCC(CN(Cc1ccccc1)c1ccccc1)N1CCCC1 (stereo not given) [Bepridil hydrochloride] , write its reported Euclidean distance.
[out] 1.64

[in] Tell us which Euclidean distance value is on record for Cc1c(-c2ccc(-c3ccccc3F)cc2)nc2ccc(F)cc2c1C(=O)O [Brequinar]
[out] 1.61

[in] Provide measured Euclidean distance value, entry: OC(c1ccccc1)(c1ccccc1)C12CC[N+](CCOCc3ccccc3)(CC1)CC2 [Umeclidinium bromide]
[out] 0.834

[in] State its Euclidean distance: CN[C@H]1C(=O)N[C@@H]2Cc3ccc(cc3)Oc3cc4cc(c3O[C@@H]3O[C@H](C(=O)O)[C@@H](O)[C@H](O)[C@H]3NC(=O)CCCCCCCCC(C)C)Oc3ccc(cc3Cl)[C@@H](O)[C@@H]3NC(=O)[C@H](NC(=O)[C@@H]4NC(=O)[C@@H](NC2=O)c2cc(cc(O)c2Cl)Oc2cc1ccc2O)c1ccc(O)c(c1)-c1c(O[C@H]2O[C@H](CO)[C@@H](O)[C@H](O)[C@@H]2O)cc(O)cc1[C@@H](C(=O)NCCCN(C)C)NC3=O [Dalbavancin]
[out] 0.58

[in] State its Euclidean distance for this compound: N#Cc1ccc(C(c2ccc(C#N)cc2)n2cncn2)cc1 [Letrozole]
[out] 3.04

* * *

Tested on: A549
Test: Euclidean distance of Cell Painting phenotypic profile (signed KS, 77 features) to DMSO centroid (dimensionless distance); 5 or 10 uM (library dependent); higher = stronger phenotypic change vs DMSO (phenoactivity)
Conditions: 48 h
Where a name gives a salt, the structure may show the parent alone.
Please provide measured Euclidean distance for the entries that follow.
Hey, just send me the number, nothing else.

[in] Name the recorded Euclidean distance of the item c1cnc2cc3c(cc2n1)[C@@H]1CNC[C@H]3C1 [Varenicline Tartrate] in your answer.
[out] 0.985

[in] In one line, give reported Euclidean distance of the entry O=C(C1CCCCC1)N1CC(=O)N2CCc3ccccc3C2C1 (stereo not drawn) .
[out] 0.773

[in] Identify measured Euclidean distance associated with OC[C@H]1O[C@@H](c2ccc(Cl)c(Cc3ccc(O[C@H]4CCOC4)cc3)c2)[C@H](O)[C@@H](O)[C@@H]1O
[out] 0.753

[in] Find the measured Euclidean distance of CCCC(CCC)C(N)=O [Valpromide] and report it.
[out] 1.08

[in] Please look at this compound and report its Euclidean distance: COCCc1ccc(OCC(O)CNC(C)C)cc1 (stereo not drawn) [Metoprolol Tartrate]
[out] 0.762

[in] Look up and report measured Euclidean distance for this entry: CC(=O)OCC(CCn1cnc2cnc(N)nc21)COC(C)=O
[out] 0.742

[in] Please give the documented Euclidean distance of CN(CCOc1ccc(NS(C)(=O)=O)cc1)CCc1ccc(NS(C)(=O)=O)cc1 [Dofetilide]
[out] 1.19

[in] Fill in Euclidean distance for record CN1CCC(=C2c3ccccc3C=Cc3ccccc32)CC1 [Cyproheptadine hydrochloride]
[out] 1.06

[in] Using the record for CCOc1ccc(C[C@H]2NC(=O)CCSSC[C@@H](C(=O)N3CCC[C@H]3C(=O)N[C@@H](CCCN)C(=O)NCC(N)=O)NC(=O)[C@H](CC(N)=O)NC(=O)[C@H]([C@@H](C)O)NC(=O)[C@H]([C@@H](C)CC)NC2=O)cc1 [Atosiban Acetate] , state its measured Euclidean distance.
[out] 1.46

[in] Check the records and state Euclidean distance for N#C[C@@H]1C[C@@H]2C[C@@H]2N1C(=O)[C@@H](N)C12CC3CC(CC(O)(C3)C1)C2 [Saxagliptin hydrate]
[out] 0.951

[in] Identify Euclidean distance associated with the compound c1ccc2[nH]c(-c3cscn3)nc2c1
[out] 0.753

[in] Give reported Euclidean distance value for Cc1ccc(=O)n(-c2ccccc2)c1
[out] 0.718

[in] Check the records and state Euclidean distance for CN[C@H]1CC[C@@H](c2ccc(Cl)c(Cl)c2)c2ccccc21 [Sertraline HCl]
[out] 2.13

[in] Please report Euclidean distance for the following compound: CC(C)(C)CC(C)(C)c1ccc(O)c(Cc2ccc(Cl)cc2Cl)c1
[out] 1.84

[in] Return Euclidean distance (reported value) for this compound: Cc1cc(C)nc(NS(=O)(=O)c2ccc(NC(=S)NC(=O)COc3ccc(Br)cc3Cl)cc2)n1
[out] 0.727

[in] Answer with the recorded Euclidean distance of NC(=O)N1c2ccccc2CC(=O)c2ccccc21 [Oxcarbazepine] only.
[out] 1.39

[in] Give recorded Euclidean distance. O=C(CO)[C@@H](O)[C@H](O)[C@H](O)CO
[out] 0.996

[in] Given the compound OB1OCc2cc(F)ccc21 , write its reported Euclidean distance.
[out] 0.76

* * *

Test system: HEPG2
Assay: Euclidean distance of Cell Painting phenotypic profile (signed KS, 77 features) to DMSO centroid (dimensionless distance); 5 or 10 uM (library dependent); higher = stronger phenotypic change vs DMSO (phenoactivity)
Conditions: 48 h
Counter-ions that a name gives are not always drawn.
Assign Fulfilled whenever Euclidean distance does not fall below 0.9; assign Not fulfilled whenever it does.

[in] Check the entry O=C1c2c(O)cccc2Cc2cccc(O)c21 [Dithranol] : does Euclidean distance equal or exceed 0.9?
[out] Fulfilled

[in] Form field: Euclidean distance at least 0.9? Entry: C[C@@H](O)[C@@H]1NC(=O)[C@H](CCCCN)NC(=O)[C@@H](Cc2c[nH]c3ccccc23)NC(=O)[C@H](Cc2ccccc2)NC(=O)[C@@H](NC(=O)[C@H](N)Cc2ccccc2)CSSC[C@@H](C(=O)N[C@H](CO)[C@@H](C)O)NC1=O [Octreotide Acetate]
[out] Not fulfilled

[in] API: above_or_equal(metric=Euclidean distance, cutoff=0.9) for item N#Cc1ccc([C@H]2CCc3cncn32)c(F)c1 [Osilodrostat (LCI699)]
[out] Not fulfilled

[in] Could you please find out whether Cc1cc(Nc2ncnc3ccc(NC4=NC(C)(C)CO4)cc23)ccc1Oc1ccn2ncnc2c1 [Irbinitinib (ARRY-380. ONT-380)] has Euclidean distance that meets 0.9 or exceeds it?
[out] Fulfilled

[in] Does the compound O=C1C(O)=C([C@H]2CC[C@H](c3ccc(Cl)cc3)CC2)C(=O)c2ccccc21 [Atovaquone] have recorded Euclidean distance that is 0.9 or more?
[out] Not fulfilled

[in] Given the entry N#CC1(c2ccc(NC(=O)c3cccnc3NCc3ccncc3)cc2)CCCC1 [Apatinib] , answer whether its Euclidean distance meets or surpasses 0.9.
[out] Fulfilled

[in] API: above_or_equal(metric=Euclidean distance, cutoff=0.9) for item N#CSc1cc(SC#N)c(N)nc1N
[out] Fulfilled

[in] Record CN1CCN(c2ccc3nc(-c4c(N)c5c(F)cccc5[nH]c4=O)[nH]c3c2)CC1 [Dovitinib (TKI-258) Dilactic Acid] ; criterion: Euclidean distance no lower than 0.9. Met?
[out] Fulfilled

[in] Could you tell me if the measured Euclidean distance of CCn1cc(C(=O)O)c(=O)c2cc(F)c(N3CCNCC3)nc21 [Enoxacin Sesquihydrate] reaches 0.9 or more?
[out] Not fulfilled

[in] Could you tell me if the measured Euclidean distance of COc1ccc(CNCc2cccc3ccccc23)cc1 reaches 0.9 or more?
[out] Fulfilled

[in] Could you verify whether the entry CC(C)NC[C@H](O)COc1ccc(CCOCC2CC2)cc1 [Levobetaxolol HCl] shows Euclidean distance of no less than 0.9?
[out] Not fulfilled

[in] Is Euclidean distance for Nc1cc(C(F)(F)F)c(-c2cc(N3CCOCC3)nc(N3CCOCC3)n2)cn1 [Buparlisib (BKM120. NVP-BKM120)] at or above 0.9?
[out] Fulfilled

[in] Decide: is the reported value of Euclidean distance for C[C@H]1O[C@@H](n2cc(F)c(=O)[nH]c2=O)[C@H](O)[C@@H]1O [Doxifluridine] equal to or greater than 0.9?
[out] Fulfilled

[in] I'd appreciate it if you could say whether O=C(c1ccc(/C=C/c2n[nH]c3ccccc23)cc1)N1CCNCC1 has Euclidean distance at least equal to 0.9.
[out] Fulfilled

[in] Form field: Euclidean distance at least 0.9? Entry: COc1cc(OC2CCN(C)CC2)ccc1Nc1ncc2c(n1)n(C1CCCC1)c(=O)n2C
[out] Fulfilled

[in] Given the entry CC(C)(S)[C@@H](N)C(=O)O [Penicillamine] , answer whether its Euclidean distance meets or surpasses 0.9.
[out] Fulfilled

[in] Please indicate if the recorded Euclidean distance for CCN(CCCCOC(=O)c1ccc(OC)c(OC)c1)C(C)Cc1ccc(OC)cc1 (stereo not drawn) [Mebeverine Hydrochloride] meets or exceeds 0.9.
[out] Not fulfilled

* * *

Test system: FB
Test: Euclidean distance of Cell Painting phenotypic profile (signed KS, 77 features) to DMSO centroid (dimensionless distance); 5 or 10 uM (library dependent); higher = stronger phenotypic change vs DMSO (phenoactivity)
Details: 48 h
Counter-ions that a name gives are not always drawn.
Assign Euclidean distance to each entry below.
API doc: respond with a numeric literal and nothing else, no unit.

[in] Specify measured Euclidean distance for Cn1cnc2c(F)c(Nc3ccc(Br)cc3Cl)c(C(=O)NOCCO)cc21 .
[out] 2.95

[in] Item CS(=O)(=O)CCNCc1ccc(-c2ccc3ncnc(Nc4ccc(OCc5cccc(F)c5)c(Cl)c4)c3c2)o1 [Lapatinib ditosylate monohydrate] : provide Euclidean distance
[out] 2.59

[in] Answer with the recorded Euclidean distance for the compound listed here: O=C(O)c1ccccc1Nc1cccc(C(F)(F)F)c1
[out] 1.09

[in] Return Euclidean distance (reported value) for this compound: O=C1c2cccc3c2[C@H](CCC3)CN1[C@@H]1CN2CCC1CC2 [Palonosetron HCl]
[out] 0.972

[in] Using known records, supply Euclidean distance for O=c1[nH]cnc2nc[nH]c12
[out] 1.66

[in] Let me know recorded Euclidean distance for NC(=O)c1ccc(OCCCN2CC3CCCC3C2)cc1 (stereo unspecified) , thanks.
[out] 1.36

[in] Dear colleague, please send me the reported Euclidean distance for CC(C)(C)[C@H]1CC[C@H](CC2=C(O)C(=O)c3ccccc3C2=O)CC1 when you can.
[out] 0.844

[in] Please list Euclidean distance recorded for the compound Cc1cccc(-c2[nH]c(C(C)(C)C)nc2-c2ccc3nccnc3c2)n1
[out] 0.884

[in] Provide Euclidean distance value for the following compound: CC(C(=O)O)c1ccc(-c2ccccc2)c(F)c1 (stereo unspecified)
[out] 1.21

[in] Annotate the compound CCOc1ccc(C[C@H]2NC(=O)CCSSC[C@@H](C(=O)N3CCC[C@H]3C(=O)N[C@@H](CCCN)C(=O)NCC(N)=O)NC(=O)[C@H](CC(N)=O)NC(=O)[C@H]([C@@H](C)O)NC(=O)[C@H]([C@@H](C)CC)NC2=O)cc1 [Atosiban Acetate] with its measured Euclidean distance.
[out] 1.59

[in] Quickly give me recorded Euclidean distance for CC1=C(C(=O)O)N2C(=O)[C@@H](NC(=O)[C@H](N)c3ccc(O)cc3)[C@H]2SC1 [Cefadroxil hydrate]
[out] 0.785

[in] Give the reported Euclidean distance for this compound. COc1cc2ccc(=O)oc2cc1O
[out] 0.934

[in] Give Euclidean distance for the following compound: C[C@]12CCC(=O)C=C1CC[C@@H]1[C@@H]2C(=O)C[C@@]2(C)[C@H]1CC[C@]2(O)C(=O)CO
[out] 1.27

[in] # return recorded Euclidean distance for entry CC(C(=O)O)c1ccc2c(c1)Cc1cccnc1O2 (stereo unspecified)
[out] 1.04

[in] Please report the measured Euclidean distance for CCN[C@H]1C[C@H](C)S(=O)(=O)c2sc(S(N)(=O)=O)cc21 [Dorzolamide HCl]
[out] 1.31

[in] Quickly give me recorded Euclidean distance for N#Cc1ccnc(N2C(=O)CC[C@H]2C(=O)N(c2cncc(F)c2)[C@H](C(=O)NC2CC(F)(F)C2)c2ccccc2Cl)c1
[out] 1.1

The values you see were collected from the supplement of paper PMC10127200.
